Source listed as ChEMBL document CHEMBL2331108.

Listed here are compounds together with their documented Ki.
- experimental.target: Sigma non-opioid intracellular receptor 1 (Homo sapiens, UniProt Q99720)
- Sequence (Q99720 whole entry): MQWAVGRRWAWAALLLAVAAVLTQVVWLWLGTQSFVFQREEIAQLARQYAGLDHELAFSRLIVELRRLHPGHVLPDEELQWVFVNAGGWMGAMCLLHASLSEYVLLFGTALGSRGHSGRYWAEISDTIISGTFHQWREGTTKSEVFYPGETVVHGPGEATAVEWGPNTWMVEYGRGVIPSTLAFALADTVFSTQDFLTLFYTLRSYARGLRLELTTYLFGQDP
- test.method.notes: Displacement of [3H]-(+)-pentazocine from human sigma1 receptor transfected in HEK293 cells after 120 mins by liquid scintillation counting analysis
Quick reminder: number only, in µM, skip the unit.

[
  {
    "compound": "Clc1ccc(Oc2ccc3c(c2)[C@H]2OCCC[C@H]2[C@@H](C2CCCCC2)N3)cc1 (racemic)",
    "Ki / µM": 0.194
  },
  {
    "compound": "CCN1CCC([C@H]2Nc3ccc(OCCC(C)C)cc3[C@H]3OCCC[C@H]32)CC1 (racemic)",
    "Ki / µM": 0.317
  }
]

// CCCCCc1ccc2c(c1)[C@H]1OCCC[C@H]1[C@@H](C1CCCCC1)N2 (racemic) : Ki value = 0.043

// CCCCCc1ccc2c(c1)[C@H]1OCC[C@H]1[C@@H](C1CCCCC1)N2 (racemic) : Ki value = 0.245

// CCCCCc1ccc2c(c1)[C@H]1OCCC[C@H]1[C@@H](C1CCCCC1)N2 : Ki value = 0.019

// CC(C)CCOc1ccc2c(c1)[C@H]1OCCC[C@H]1[C@@H](C1CCOCC1)N2 (racemic) : Ki value = 0.084

// CC(C)CCOc1ccc2c(c1)[C@H]1OCCC[C@H]1[C@@H](C1CCOCC1)N2 : Ki value = 0.03

// Clc1cccc(Oc2ccc3c(c2)[C@H]2OCCC[C@H]2[C@@H](C2CCCCC2)N3)c1 (racemic) : Ki value = 0.377

// Clc1ccc(Oc2ccc3c(c2)[C@H]2OCCC[C@H]2[C@@H](C2CCCCC2)N3)cc1Cl (racemic) : Ki value = 0.079

====

- experimental.target: Cytochrome P450 2D6 (Homo sapiens, UniProt P10635)
- Sequence (P10635 whole entry): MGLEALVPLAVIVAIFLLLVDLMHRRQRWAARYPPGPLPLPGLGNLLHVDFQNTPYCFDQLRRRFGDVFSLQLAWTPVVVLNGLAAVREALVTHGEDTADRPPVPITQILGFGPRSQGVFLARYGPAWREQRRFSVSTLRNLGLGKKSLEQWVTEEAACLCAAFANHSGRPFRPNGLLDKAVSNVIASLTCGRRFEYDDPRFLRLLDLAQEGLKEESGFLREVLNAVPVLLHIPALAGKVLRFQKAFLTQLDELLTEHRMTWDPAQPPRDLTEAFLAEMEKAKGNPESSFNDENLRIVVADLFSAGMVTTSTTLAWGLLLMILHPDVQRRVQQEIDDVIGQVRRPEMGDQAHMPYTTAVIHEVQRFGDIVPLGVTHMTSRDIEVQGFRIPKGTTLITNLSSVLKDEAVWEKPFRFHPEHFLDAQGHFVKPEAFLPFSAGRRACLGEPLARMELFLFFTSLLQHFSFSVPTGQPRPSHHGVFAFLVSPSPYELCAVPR
- test.method.notes: Inhibition of human recombinant CYP2D6
measurement.type: IC50

// CC(C)CCOc1ccc2c(c1)[C@H]1OCCC[C@H]1[C@@H](C1CCOCC1)N2 : IC50 value = > 5 µM

====

- experimental.target: Cytochrome P450 3A4 (Homo sapiens)
- Sequence (P08684 whole entry): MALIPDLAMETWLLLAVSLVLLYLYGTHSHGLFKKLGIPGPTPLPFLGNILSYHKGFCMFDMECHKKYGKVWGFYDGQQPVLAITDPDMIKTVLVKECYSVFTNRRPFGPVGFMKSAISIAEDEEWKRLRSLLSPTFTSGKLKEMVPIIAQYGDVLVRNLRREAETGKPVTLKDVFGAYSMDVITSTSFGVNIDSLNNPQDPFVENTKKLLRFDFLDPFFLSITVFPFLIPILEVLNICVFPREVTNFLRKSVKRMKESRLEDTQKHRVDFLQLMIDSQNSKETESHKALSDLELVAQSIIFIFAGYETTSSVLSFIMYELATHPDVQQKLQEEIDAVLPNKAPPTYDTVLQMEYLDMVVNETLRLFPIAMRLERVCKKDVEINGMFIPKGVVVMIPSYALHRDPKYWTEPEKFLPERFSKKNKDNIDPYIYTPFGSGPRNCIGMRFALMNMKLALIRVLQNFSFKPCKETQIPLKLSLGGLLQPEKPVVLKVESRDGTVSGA
- test.method.notes: Inhibition of human recombinant CYP3A4
- Assay type: ADME
pIC50: −log10 of the molar value.
measurement.type: pIC50

// CC(C)CCOc1ccc2c(c1)[C@H]1OCCC[C@H]1[C@@H](C1CCOCC1)N2 : pIC50 value = < 5.30

====

- test.method.notes: Displacement of [3H]-Di-o-tolyguanidine from guinea pig sigma2 receptor after 120 mins by liquid scintillation counting analysis
- Design: species or system Cavia porcellus
Listed here are compounds together with their documented pKi.
Here pKi is given on a logarithmic scale as minus log10 of the concentration in mol/L.

Examples with answers:
[
  {
    "compound": "CCCCOc1ccc2c(c1)[C@H]1OCCC[C@H]1[C@@H](c1ccccc1)N2 (racemic)",
    "pKi": 6.00
  },
  {
    "compound": "c1ccc2c(c1)N[C@H](C1CCCCC1)[C@@H]1CCCO[C@H]21 (racemic)",
    "pKi": 6.00
  },
  {
    "compound": "CCCCc1ccc2c(c1)[C@H]1OCCC[C@H]1[C@@H](C1CCCCC1)N2 (racemic)",
    "pKi": 6.00
  },
  {
    "compound": "CC(C)CCOc1ccc2c(c1)[C@H]1OCCC[C@H]1[C@@H](C1CCCC1)N2 (racemic)",
    "pKi": 6.00
  },
  {
    "compound": "Clc1cccc(Oc2ccc3c(c2)[C@H]2OCCC[C@H]2[C@@H](C2CCCCC2)N3)c1 (racemic)",
    "pKi": 6.00
  }
]

// CCCCCc1ccc2c(c1)[C@H]1OCCC[C@H]1[C@@H](C1CCOCC1)N2 (racemic) : pKi value = 6.00

// O=C(CCCN1CCC(O)(c2ccc(Cl)cc2)CC1)c1ccc(F)cc1 : pKi value = 6.00

// CCCCOc1ccc2c(c1)[C@H]1OCCC[C@H]1[C@@H](C1CC1)N2 (racemic) : pKi value = 6.00
